Where do these numbers come from? They come from paper PMC7923228.

Test system: MDA-MB-361 cells
Test: cells
Settings: Homo sapiens, MDA-MB-361, 72 h
readout_label: IC50 (nM)
Could you give me the number in nM? Just the number is fine.

Problem: Requested read-out: IC50. Entry: Oc1cccc(-c2nc(N3CCOCC3)c3oc4ncccc4c3n2)c1
Solution: 1700
